# assayed-system: KRAS G13D (Homo sapiens (Human), UniProt P01116+P62937, G13D)
# Sequence (P01116-2 other isoform, or with tags, fused parts or gaps G13D): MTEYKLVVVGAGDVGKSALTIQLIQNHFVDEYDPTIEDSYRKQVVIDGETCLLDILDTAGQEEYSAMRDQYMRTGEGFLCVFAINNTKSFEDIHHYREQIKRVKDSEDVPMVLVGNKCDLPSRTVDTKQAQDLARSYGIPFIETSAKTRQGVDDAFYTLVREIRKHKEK
# Sequence (P62937 whole entry): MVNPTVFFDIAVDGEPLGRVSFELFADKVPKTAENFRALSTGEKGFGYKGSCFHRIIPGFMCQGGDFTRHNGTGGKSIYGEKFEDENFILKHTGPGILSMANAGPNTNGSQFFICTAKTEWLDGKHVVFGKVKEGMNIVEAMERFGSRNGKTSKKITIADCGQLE
# measurement-protocol: Ras-Raf (BRAF RBD) disruption / FRET / MOA assay, KRAS G13D
# Format: biochemical
# condition-details: read-out: IC50* KRAS G13D FRET data
parameter: IC50

## Input Need IC50, item CC#CC(=O)N1C[C@H](C)[C@H](C(=O)N(C)[C@H](C(=O)N[C@H]2Cc3cccc(c3)-c3ccc4c(c3)c(c(-c3cccnc3[C@H](C)OC)n4CC)CC(C)(C)COC(=O)[C@@H]3CCCN(N3)C2=O)C(C)C)C1 (atropisomer, axis not shown)
## Output 1000 to 10000 nM

## Input Param item = C=CC(=O)N(C)C1CCN(C(=O)N(C)[C@H](C(=O)N[C@H]2Cc3nc(cs3)-c3ccc4c(c3)c(c(-c3cccnc3[C@H](C)OC)n4CC)CC(C)(C)COC(=O)[C@@H]3CCCN(N3)C2=O)C(C)C)CC1 (atropisomer, axis not shown) ; retrieve measured IC50.
## Output 100 to 1000 nM

## Input Entry C=CC(=O)N1C[C@H](C)N(C(=O)N(C)[C@H](C(=O)N[C@H]2Cc3nc(cs3)-c3ccc4c(c3)c(c(-c3cccnc3[C@H](C)OC)n4CC)CC(C)(C)COC(=O)[C@@H]3CCCN(N3)C2=O)C(C)C)C[C@@H]1C (atropisomer, axis not shown) has what IC50?
## Output 100 to 1000 nM

## Input Looking for the measured IC50 of C=CC(=O)N1CCN(C(=O)N(C)[C@H](C(=O)N[C@H]2Cc3nc(cs3)-c3ccc4c(c3)c(c(-c3cccnc3[C@H](C)OC)n4CC)CC(C)(C)COC(=O)[C@@H]3CCCN(N3)C2=O)C(C)C)[C@@H]2CC[C@@H]21 (atropisomer, axis not shown) , can you help?
## Output 100 to 1000 nM

----------
Measured IC50, listed per entry for reference.
# assayed-system: NRAS G12C (Homo sapiens (Human), UniProt P01111+P62937, G12C)
# Sequence (P01111 whole entry G12C): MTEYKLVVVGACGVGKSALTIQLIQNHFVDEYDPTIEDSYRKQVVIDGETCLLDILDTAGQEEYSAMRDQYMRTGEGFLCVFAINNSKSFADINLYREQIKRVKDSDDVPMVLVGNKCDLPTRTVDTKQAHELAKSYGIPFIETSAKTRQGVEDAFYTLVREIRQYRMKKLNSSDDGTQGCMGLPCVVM
# Sequence (P62937 whole entry): as the sequence (P62937 whole entry) above
# measurement-protocol: Ras-Raf (BRAF RBD) disruption / FRET / MOA assay, NRAS G12C
# Assay type: biochemical
# condition-details: read-out: IC50* NRAS G12C FRET data

CCn1c(-c2cccnc2[C@H](C)OC)c2c3cc(ccc31)-c1cccc(c1)C[C@H](NC(=O)[C@H](C(C)C)N(C)C(=O)[C@@H]1CCN(C(=O)C#CC(C)(C)N3CCC3)C1)C(=O)N1CCC[C@H](N1)C(=O)OCC(C)(C)C2 ... 0.01 to 0.1 µM

Note: attention shifts to another entry.
## Input // returns reported IC50 for input C=CC(=O)C1CC[C@H](C(=O)N(C)[C@H](C(=O)N[C@H]2Cc3nsc(n3)-c3ccc4c(c3)c(c(-c3cccnc3[C@H](C)OC)n4CC)CC(C)(C)COC(=O)[C@@H]3CCCN(N3)C2=O)C(C)C)C1 (some centres unmarked)
## Output 0.1 to 1 µM

----------
Below, each entry is listed alongside its reported IC50.
# assayed-system: KRAS WT (Homo sapiens (Human), UniProt P01116+P62937)
# Sequence (P01116-2 other isoform, or with tags, fused parts or gaps): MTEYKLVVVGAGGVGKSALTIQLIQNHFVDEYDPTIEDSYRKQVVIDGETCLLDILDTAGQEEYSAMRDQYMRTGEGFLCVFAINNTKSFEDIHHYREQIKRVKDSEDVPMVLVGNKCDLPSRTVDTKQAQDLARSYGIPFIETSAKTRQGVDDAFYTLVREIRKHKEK
# Sequence (P62937 whole entry): as the sequence (P62937 whole entry) above
# measurement-protocol: Ras-Raf (BRAF RBD) disruption / FRET / MOA assay, KRAS WT
# Assay type: biochemical
# condition-details: read-out: IC50* KRAS WT FRET data

CO[C@@H](C)c1ncccc1-c1c2c3cc(ccc3n1CC(F)(F)F)-c1csc(n1)C[C@H](NC(=O)[C@@H](COC1CN(C(=O)C#CC(C)(C)N(C)C)C1)C(C)C)C(=O)N1CCC[C@H](N1)C(=O)OCC(C)(C)C2 (atropisomer, axis not shown) [Example A343] ... 1000 to 10000 nM

## Input Item C=CC(=O)N(C)[C@H]1C[C@H](N(C)C(=O)N(C)[C@H](C(=O)N[C@H]2Cc3nc(cs3)-c3ccc4c(c3)c(c(-c3cccnc3[C@H](C)OC)n4CC)CC(C)(C)COC(=O)[C@@H]3CCCN(N3)C2=O)C(C)C)C1 (atropisomer, axis not shown) [Example A712] has what recorded IC50?
## Output 10 to 100 nM

## Input Data request, read-out IC50, for C/C=C/C(=O)N1CC2(CCN(C(=O)N(C)[C@H](C(=O)N[C@H]3Cc4nc(cs4)-c4ccc5c(c4)c(c(-c4cccnc4[C@H](C)OC)n5CC)CC(C)(C)COC(=O)[C@@H]4CCCN(N4)C3=O)C(C)C)CC2)C1 (atropisomer, axis not shown) [Example A671]
## Output 100 to 1000 nM

## Input // lookup IC50 for CCn1c(-c2cccnc2[C@H](C)OC)c2c3cc(ccc31)-c1csc(n1)C[C@H](NC(=O)[C@H](C(C)C)N(C)C(=O)[C@H]1CCN(C(=O)C#CC(C)(C)N(C)C)C1)C(=O)N1CCC[C@H](N1)C(=O)OCC(C)(C)C2 (atropisomer, axis not shown) [Example A291]
## Output 1000 to 10000 nM
